# ASSAY METHOD TEXT: Solubility of dapivirine in water
# Assay type: physicochemical
PARAMETER MEASURED: solubility

1. Cc1cc(C)c(Nc2ccnc(Nc3ccc(C#N)cc3)n2)c(C)c1 = < 1 µg/mL
